Taken from PubChem BioAssay AID1963862.

# Tested on: KRAS patient-derived spheroids with HUVEC/MSC, viability
# MEASUREMENT_DESCRIPTION: Anticancer human tumor 941728-121-R-J1-PDC patient-derived lung adenocarcinoma cell line growth inhibition [KRAS2]
# CONDITIONS: second compound 0.0316 µM; first compound 0.01 µM; active compounds read low
REPORTED_PROPERTY: viability, T/C (%)
Your answer is read as %, so omit the unit and give the number.

Query: Requested field: viability, T/C. Item: CC(=O)OC12COC1CC(O)C1(C)C(=O)C(O)C3=C(C)C(OC(=O)C(O)C(NC(=O)OC(C)(C)C)c4ccccc4)CC(O)(C(OC(=O)c4ccccc4)C21)C3(C)C (stereo not drawn) + C=CC(=O)N1CCN(c2nc(OCC3CCCN3C)nc3c2CCN(c2cccc4cccc(C)c24)C3)CC1CC#N
Result: 28.2

Query: Requested field: viability, T/C. Item: CC1COCCN1c1cc(-c2ccnn2C)c2ccnc(-c3ccn[nH]3)c2n1 (stereo not drawn) + C=CC(=O)N1CCN(c2nc(OCC3CCCN3C)nc3c2CCN(c2cccc4cccc(C)c24)C3)CC1CC#N
Result: 26.5

Query: Requested field: viability, T/C. Item: CCN1CCN(Cc2ccc(Nc3ncc(F)c(-c4cc(F)c5nc(C)n(C(C)C)c5c4)n3)nc2)CC1 + C=CC(=O)N1CCN(c2nc(OCC3CCCN3C)nc3c2CCN(c2cccc4cccc(C)c24)C3)CC1CC#N
Result: 25.6

====

# System: KRAS patient-derived spheroids with HUVEC/MSC, viability
# MEASUREMENT_DESCRIPTION: Anticancer human tumor 941728-121-R-J1-PDC cell line growth inhibition [KRAS2]; active means viability on the fitted dose curve at most 10% of control; inactive means the rest;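 further: spheroids exposed to agents for seven days before readout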
# CONDITIONS: second compound 3.16 µM; first compound 0.0316 µM
Output constraint: value belongs to True (active), False (inactive)

Query: Field: outcome | Entry: CCNC(=O)CC1N=C(c2ccc(Cl)cc2)c2cc(OC)ccc2-n2c(C)nnc21 (configuration not stated) + COc1cc2nc(C)nc(NC(C)c3cc(N)cc(C(F)(F)F)c3)c2cc1OC1CCOC1
Result: False

====

# Test system: KRAS patient-derived spheroids with HUVEC/MSC, viability
# MEASUREMENT_DESCRIPTION: Anticancer human tumor 941728-121-R-J1-PDC cell line growth inhibition [KRAS2]; active = viability on the fitted dose curve at most 10% of control; inactive = the rest;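 further: spheroids exposed to agents for seven days before readout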
# CONDITIONS: second compound 3.16 µM; first compound 0.0316 µM
Output constraint: value belongs to 1 for active, 0 for inactive

Before answering, review these 10 worked examples.
COMPOUND | SYSTEM_TESTED | CATEGORY_LABEL
CN(C)C/C=C/C(=O)Nc1cc2c(Nc3ccc(F)c(Cl)c3)ncnc2cc1O[C@H]1CCOC1 + CC1OCC2(CCN(c3cnc(Sc4ccnc(N)c4Cl)c(N)n3)CC2)C1N | KRAS patient-derived spheroids with HUVEC/MSC, viability | 0
Cn1ncnc1[C@H]1c2n[nH]c(=O)c3cc(F)cc(c23)N[C@@H]1c1ccc(F)cc1 + C=CC(=O)N1CCN(c2nc(OCC3CCCN3C)nc3c2CCN(c2cccc4cccc(C)c24)C3)CC1CC#N | KRAS patient-derived spheroids with HUVEC/MSC, viability | 1
CCNC(=O)CC1N=C(c2ccc(Cl)cc2)c2cc(OC)ccc2-n2c(C)nnc21 (centres undefined) + CC1OCC2(CCN(c3cnc(Sc4ccnc(N)c4Cl)c(N)n3)CC2)C1N | KRAS patient-derived spheroids with HUVEC/MSC, viability | 0
CCN1CCN(Cc2ccc(Nc3ncc(F)c(-c4cc(F)c5nc(C)n(C(C)C)c5c4)n3)nc2)CC1 + COc1cc2nc(C)nc(NC(C)c3cc(N)cc(C(F)(F)F)c3)c2cc1OC1CCOC1 | KRAS patient-derived spheroids with HUVEC/MSC, viability | 0
Cn1nccc1Nc1nccc(-c2cc3c(s2)C(C)(C)N(CCN2CCOCC2)C3=O)n1 + C=CC(=O)N1CCN(c2nc(=O)n(-c3c(C)ccnc3C(C)C)c3nc(-c4c(O)cccc4F)c(F)cc23)C(C)C1 | KRAS patient-derived spheroids with HUVEC/MSC, viability | 0
CC1(C)CCC(CN2CCN(c3ccc(C(=O)NS(=O)(=O)c4ccc(NCC5CCOCC5)c([N+](=O)[O-])c4)c(Oc4cnc5[nH]ccc5c4)c3)CC2)=C(c2ccc(Cl)cc2)C1 + CC1OCC2(CCN(c3cnc(Sc4ccnc(N)c4Cl)c(N)n3)CC2)C1N | KRAS patient-derived spheroids with HUVEC/MSC, viability | 0
CN(C)C/C=C/C(=O)Nc1cc2c(Nc3ccc(F)c(Cl)c3)ncnc2cc1O[C@H]1CCOC1 + CNCc1ccccc1-c1csc(C(C)Nc2nc(C)nc3cc(OC)c(OC)cc23)c1 | KRAS patient-derived spheroids with HUVEC/MSC, viability | 1
CC1OCC2(CCN(c3cnc(Sc4ccnc(N)c4Cl)c(N)n3)CC2)C1N (centres undefined) + COc1cc2nc(C)nc(NC(C)c3cc(N)cc(C(F)(F)F)c3)c2cc1OC1CCOC1 | KRAS patient-derived spheroids with HUVEC/MSC, viability | 0
COc1cc2nccc(Oc3ccc(NC(=O)C4(C(=O)Nc5ccc(F)cc5)CC4)cc3)c2cc1OC + C=CC(=O)N1CCN(c2nc(OCC3CCCN3C)nc3c2CCN(c2cccc4cccc(C)c24)C3)CC1CC#N | KRAS patient-derived spheroids with HUVEC/MSC, viability | 1
CCNC(=O)CC1N=C(c2ccc(Cl)cc2)c2cc(OC)ccc2-n2c(C)nnc21 (centres undefined) + CNCc1ccccc1-c1csc(C(C)Nc2nc(C)nc3cc(OC)c(OC)cc23)c1 | KRAS patient-derived spheroids with HUVEC/MSC, viability | 1

Query: Field: outcome | Entry: O=C(c1cc(Cc2n[nH]c(=O)c3ccccc23)ccc1F)N1CCN(C(=O)C2CC2)CC1 + CC1OCC2(CCN(c3cnc(Sc4ccnc(N)c4Cl)c(N)n3)CC2)C1N
Result: 0

Query: Field: outcome | Entry: COC(=O)c1ccc2c(C(=Nc3ccc(N(C)C(=O)CN4CCN(C)CC4)cc3)c3ccccc3)c(O)[nH]c2c1 + COc1cc2nc(C)nc(NC(C)c3cc(N)cc(C(F)(F)F)c3)c2cc1OC1CCOC1
Result: 0

Query: Field: outcome | Entry: COc1cc(Nc2ncc3c(n2)-c2ccc(Cl)cc2C(c2c(F)cccc2OC)=NC3)ccc1C(=O)O + CNCc1ccccc1-c1csc(C(C)Nc2nc(C)nc3cc(OC)c(OC)cc23)c1
Result: 1

Query: Field: outcome | Entry: Cn1nccc1Nc1nccc(-c2cc3c(s2)C(C)(C)N(CCN2CCOCC2)C3=O)n1 + C=CC(=O)N1CCN(c2nc(OCC3CCCN3C)nc3c2CCN(c2cccc4cccc(C)c24)C3)CC1CC#N
Result: 1
